experiment: in vitro
Type: in vitro ADME, human
run.parameters: human, serum, Table 5; human serum, 37° C.; read-out: Serum Half-life (converted)
Structures can show the parent of a compound that is named as a salt.
Exercise: state measured half-life for each of the compounds provided.
The reply should contain only the number, in min.

Inquiry: For the compound shown here, CCn1cc(C(=O)OCOC(=O)CCCCC[N+](C)(C)C)c(=O)c2ccc(C)nc21 , give the reported half-life.
Reply text: 4.8

Inquiry: Thanks! And CC(=O)O[C@H](CC(=O)Oc1ccc2c(c1)CC[C@@H]1[C@@H]2CC[C@]2(C)[C@@H](O)CC[C@@H]12)C[N+](C)(C)C ?
Reply text: 8

Inquiry: Moving on to the next compound: COc1ccc2c(c1)c(CC(=O)OCCNC(=O)CCCCCN(C)C)c(C)n2C(=O)c1ccc(Cl)cc1
Reply text: 816

Inquiry: Lookup CC1OC(OC2CCC3(C)C(CCC4C3CC(O)C3(C)C(C5=CC(=O)OC5)CCC43O)C2)CC(O)C1OC1CC(O)C(OC2CC3OC(=O)OC3C(C)O2)C(C)O1 (centres unmarked) [digoxin-3'",4'"-cyclic carbonate]
Reply text: 0.15

Inquiry: Also C[C@]12CC[C@H](OC(=O)OCC[N+](C)(C)C)C[C@H]1CC[C@@H]1[C@@H]2CC[C@]2(C)[C@@H](C3=CC(=O)OC3)CC[C@]12O ?
Reply text: 13.6

Inquiry: Do the same for C[n+]1cccc(C(=O)OC[C@H](NC(=O)OCc2ccccc2)C(=O)OCc2ccccc2)c1 [serine, L-isomer, HO-trigonellate ester, N-CBZ, benzyl ester] please
Reply text: 5

Inquiry: What would you report for C[C@]12CC[C@H]3[C@@H](CCC4=CC(=O)CC[C@@]43C)[C@@H]1CC[C@@H]2OC(=O)OCOC(=O)C[N+](C)(C)C ?
Reply text: 0.633

Inquiry: What about this compound? CC1OC(OC2C(C)OC(OC3C(C)OC(OC4CCC5(C)C(CCC6C5CC(O)C5(C)C(C7=CC(=O)OC7)CCC65O)C4)CC3OC(=O)OCOC(=O)CCCCC[N+](C)(C)C)CC2OC(=O)OCOC(=O)CCCCC[N+](C)(C)C)CC2OC(=O)OC12 (centres unmarked)
Reply text: 600

Inquiry: Then what about the compound CCn1cc(C(=O)OCC[N+](C)(C)C)c(=O)c2ccc(C)nc21 ?
Reply text: 66

Inquiry: Same question, COC(=O)CC(C[N+](C)(C)C)OC(=O)Cc1c(C)n(C(=O)c2ccc(Cl)cc2)c2ccc(OC)cc12 (racemic) this time
Reply text: 660

Inquiry: // same read-out, input: CC1OC(OC2CCC3(C)C(CCC4C3CC(OC(=O)CCC[N+](C)(C)C)C3(C)C(C5=CC(=O)OC5)CCC43O)C2)CC(O)C1OC1CC(O)C(OC2CC3OC(=O)OC3C(C)O2)C(C)O1 (centres unmarked)
Reply text: 5760

Inquiry: Another compound to look at: COC(=O)CC(CN(C)C)OC(=O)Cc1c(C)n(C(=O)c2ccc(Cl)cc2)c2ccc(OC)cc12 (racemic)
Reply text: 257

Inquiry: Thanks! And C[C@H]1O[C@@H](O[C@H]2[C@@H](O)C[C@H](O[C@H]3[C@@H](O)C[C@H](O[C@H]4CC[C@@]5(C)[C@H](CC[C@@H]6[C@@H]5C[C@@H](OC(=O)[C@@H]5CCC[N+]5(C)C)[C@]5(C)[C@@H](C7=CC(=O)OC7)CC[C@]65O)C4)O[C@@H]3C)O[C@@H]2C)C[C@@H]2OC(=O)O[C@@H]21 ?
Reply text: 294

Inquiry: Then what about the compound CC(=O)O[C@H](CC(=O)NCCCCCC(=O)OC(C)Cc1ccc([N+](=O)[O-])cc1)C[N+](C)(C)C (some centres unmarked) ?
Reply text: 21.4

Inquiry: Here is the next compound: C[C@]12CC[C@H](OC(=O)CCCCCN3CCOCC3)C[C@H]1CC[C@@H]1[C@@H]2CC[C@]2(C)[C@@H](C3=CC(=O)OC3)CC[C@]12O [digitoxigenin-3-(6-morpholino-hexanoate)]
Reply text: 14900

Inquiry: Same for CC1OC(OC2C(O)CC(OC3C(O)CC(OC4CCC5(C)C(CCC6C5CC(O)C5(C)C(C7=CC(=O)OC7)CCC65O)C4)OC3C)OC2C)CC(O)C1OC(=O)CCC[N+](C)(C)C (centres unmarked)
Reply text: 420

Inquiry: And then CCCCCCCCCCCCCCCC(=O)OC(CC(=O)OC1C(O)CC(OC2C(O)CC(OC3C(O)CC(OC4CCC5(C)C(CCC6C5CC(O)C5(C)C(C7=CC(=O)OC7)CCC65O)C4)OC3C)OC2C)OC1C)C[N+](C)(C)C (centres unmarked) , what is it?
Reply text: 19

Inquiry: CC(=O)OC1CC(C(=O)OCCc2ccc([N+](=O)[O-])cc2)[N+](C)(C)C1 (centres unmarked) , same question.
Reply text: 6

Inquiry: Next compound up: C#CC[N+](C)(COC(=O)OCC)C(C)Cc1ccccc1 (centres unmarked)
Reply text: 1.18

Inquiry: Likewise for CCN(CC)C(=O)COC(=O)Cc1c(C)n(C(=O)c2ccc(Cl)cc2)c2ccc(OC)cc12 ?
Reply text: 22.8

Inquiry: Another compound: CC1OC(OC2CCC3(C)C(CCC4C3CC(OC(=O)CCCN(C)C)C3(C)C(C5=CC(=O)OC5)CCC43O)C2)CC(O)C1OC1CC(O)C(OC2CC3OC(=O)OC3C(C)O2)C(C)O1 (centres unmarked) [hydrochloride salt]
Reply text: 1440

Inquiry: Would you mind doing C[N+](C)(C)CCOC(=O)OC1CCC(c2ccc([N+](=O)[O-])cc2)CC1 (centres unmarked) as well?
Reply text: 0.327

Inquiry: Next entry: COc1ccc2c(c1)c(CCNC(C)=O)cn2C(=O)OCC[N+](C)(C)C
Reply text: 900

Inquiry: Same thing, different compound: CCOC(=O)OC[N+]1(CCCOc2ccc(F)cc2)CC[C@H](NC(=O)c2cc(Cl)c(N)cc2OC)[C@H](OC)C1 (relative stereo)
Reply text: 4.4
